Measured values drawn from patent US4282247A for this set.

assay: LD50 mouse, os; settings: in vivo, po
assay-readout: LD50

compound	reported
CC(=O)c1ccc(O)c(C(=O)O)c1 [product B, 5-acetylsalicylic acid, reference compound]	~1000 mg/kg
CCOC(=O)c1cc(=O)c2c(OCC(O)CSC)cccc2o1 (centres unmarked)	> 1000 mg/kg
CCCCSCC(O)COc1cccc2oc(C(=O)OCC)cc(=O)c12 (centres unmarked)	> 1000 mg/kg
CCOC(=O)c1cc(=O)c2c(OCC(O)CSC(C)C)cccc2o1 (centres unmarked)	> 1000 mg/kg
CCCCSCC(O)COc1cccc2oc(C(=O)O)cc(=O)c12.O (centres unmarked)	> 1000 mg/kg
